test: viability loss in pontine glioma line – cell-based, SU-DIPG-XIII, MIPE5.0, CellTiter-Glo, qHTS, dose response (AID 1347064); conditions: CellTiter-Glo ATP luminescence;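 note: cells exposed to compound for 48 hours before the viability read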
Results filed as inconclusive are left out. Active and inactive are the calls of the source. No cut-off is given here; in the data, nearly all actives have AC50 up to about 23 µM.
Hi! Could you answer with just one of these? active, inactive

> print(dat)
                            chemical.string  category
1  O=c1cc(N2CCOCC2)oc2c(-c3ccc4c(c3)OCCO4)csc12    active

We next turn to a different molecule, shown below.
// query Call for entry Nc1ncnc(Nc2ccc(OCc3ccccc3)c(Cl)c2)c1/C=N/OCCN1CCOCC1 :
// result active
